# assay.text: gradient 5% acetonitrile 3 min, to 50% in 2 min, to 85% in 15 min, held 3 min, 100 µL/min
# particulars: column: Zorbax Extend-C18 2.1 x 50 mm; eluents: water / acetonitrile, 0.1% formic acid
RP-LC retention time vs 900 s: at or above is 1.0, below is 0.0.

QUERY: In plain terms: is recorded RP-LC retention time at least 900 s for COc1ccc(-c2nc(-c3ccc4oc(C)nc4c3)no2)cn1 ?
RESULT: 1.0

QUERY: Item: COc1ccc(S(=O)(=O)N2CCCn3ccnc3C2c2cnn(C)c2)cc1Cl (centres undefined)
RESULT: 0.0

QUERY: Likewise for Cc1nc2cc3c(cc2n1CC(=O)NCC1CCCO1)OCCO3 (centres undefined) ?
RESULT: 0.0

QUERY: What do you get for O=C(NC1CCCCCC1)C1CCCN(C(=O)c2ccc(F)c(F)c2)C1 (centres undefined) ?
RESULT: 0.0

QUERY: Continue with Cc1ccc(C)c(NS(=O)(=O)c2cc3n(c2)CCN(C(C)C)C3=O)c1
RESULT: 0.0

QUERY: Item: Cc1cc(Nc2ncccc2S(N)(=O)=O)ccc1F
RESULT: 0.0

QUERY: What do you get for O=C(Nc1ccc2c(c1)OCCO2)C1CCN(C(=O)c2cc(-c3cccnc3)n[nH]2)CC1 ?
RESULT: 0.0

QUERY: Quick one: COc1cc(OC)cc(-c2nc(-c3ccc4c(c3)oc(=O)n4C(C)C)no2)c1
RESULT: 1.0

QUERY: Next entry: Cc1cc(C)cc(-n2ccc(=O)c(-c3nc(-c4ccc5c(c4)OCO5)no3)n2)c1
RESULT: 1.0

QUERY: Try this compound next: O=C(NCCc1c[nH]c2ccccc12)c1cc2cccnc2n(Cc2ccc(F)cc2)c1=O
RESULT: 1.0

QUERY: Continue with Cc1ccc(-c2cc3c(=O)n(Cc4nc(-c5ccc(Br)cc5)no4)ncn3n2)c(C)c1
RESULT: 1.0

QUERY: Also need Cc1ccc2c(=O)cc(C(=O)NCC(c3ccccc3)N(C)C)oc2c1C (centres undefined) , thanks.
RESULT: 0.0

QUERY: Try O=C(NCC1CCS(=O)(=O)C1)c1cc(-c2cccs2)[nH]n1 (centres undefined) next.
RESULT: 0.0

QUERY: Same question, Cc1cc(N2CCN(c3ccccn3)CC2)n2nc(-c3ccco3)nc2n1 this time
RESULT: 0.0

QUERY: Please do the same for Cc1nc(-c2ccc3c(c2)n(CC(=O)N2CCn4c2nc2ccccc24)c(=O)n3C(C)C)no1 as well.
RESULT: 0.0

QUERY: Record: O=C(Cn1nc2c(cc1=O)CCCC2)Nc1nc(-c2ccccn2)cs1
RESULT: 0.0

QUERY: Same thing, different compound: CCn1c(SC)nnc1-c1nn(C)c2c1CN(C(=O)Cc1ccc(F)cc1)CC2
RESULT: 0.0

QUERY: Try this compound next: CC(C)CCN(CC(=O)N1CCNCC1)C(=O)c1cccc(Br)c1
RESULT: 0.0

QUERY: Next: Cc1ccc(CNC(=O)c2cc3n(n2)CC(C)(C(=O)NCc2ccc(C)cc2)N(C)C3=O)cc1 (centres undefined)
RESULT: 0.0

QUERY: Same lookup for CSc1nnc(-c2nn(C)c3c2CN(C(=O)c2cccc(N(C)C)c2)CC3)n1C , please.
RESULT: 0.0

QUERY: Proceed to COCCN1C(=O)CCc2cc(NS(=O)(=O)c3ccc(F)cc3)ccc21
RESULT: 0.0

QUERY: Do the same for O=S(=O)(Nc1cccc(Cl)c1)c1ccc2nncn2c1 please
RESULT: 0.0

QUERY: Try this compound too: CCc1noc(-c2nnn3c2COC(c2ccc(F)cc2)C3)n1 (centres undefined)
RESULT: 1.0

QUERY: Same read-out for Cc1cccc(NC(=O)c2ccc3nn(CC(=O)Nc4ccc(C)c(F)c4)c(=O)n3c2)c1 ?
RESULT: 0.0

QUERY: Another compound: Fc1ccc(N2CCN(c3nnc(SCc4cccnc4)s3)CC2)cc1
RESULT: 0.0

QUERY: And what about the compound Clc1ccc(Nc2c(-c3ccccc3Cl)nc3ccc(Cl)cn23)cc1 ?
RESULT: 1.0

QUERY: // query: Cc1ccc(C(=O)NCCc2nc3cccnc3n2C(C)C)c(C)c1
RESULT: 0.0

QUERY: Likewise for CCCn1ccc2sc(C)c(C(=O)NCc3ccc(C)o3)c2c1=O ?
RESULT: 0.0

QUERY: What about Clc1ccccc1-c1nc(-c2cccc(-c3ccn[nH]3)c2)no1 ?
RESULT: 1.0

QUERY: Same question, COc1ccc(CC(=O)N2CCCC2c2nc(-c3ccccc3OC)no2)cc1 (centres undefined) this time
RESULT: 0.0

QUERY: Likewise for Cc1c(C(=O)N2CCc3nc(NC(=O)C4CCCO4)sc3C2)cnn1-c1ccccc1 (centres undefined) ?
RESULT: 0.0

QUERY: Lookup COc1ccc(/C=C/c2cc3c(cc2OC)OCCO3)cc1O
RESULT: 1.0

QUERY: Let us now turn to Cc1noc(C)c1CCC(=O)N1CCCn2ccnc2C1C1CCCC1 (centres undefined)
RESULT: 0.0

QUERY: How about this compound: Oc1ccc(Nc2nc(-c3ccccc3)cs2)cc1
RESULT: 0.0
